- Tested on: 494315-158-R-J1-PDC complex spheroid growth, percent test/control
- Protocol: Anticancer human tumor 494315-158-R-J1-PDC patient-derived soft tissue sarcoma cell line growth inhibition [Asc]
- Test Settings: second compound 0.0949 µM; first compound 0.01 µM; active compounds read low
Threshold check on viability, T/C: strictly below 70% is Y; on or above 70% is N.

Solved entries:
Compound	Label
CCN1CCN(Cc2ccc(Nc3ncc(F)c(-c4cc(F)c5nc(C)n(C(C)C)c5c4)n3)nc2)CC1 + CCN1C(C(=O)NC23CCC(C(=O)O)(CC2)CC3)C(c2cccc(Cl)c2F)C2(C(=O)Nc3cc(Cl)ccc32)C12CCCCC2	N
CNC(C)C(=O)NC1CN(S(=O)(=O)c2cccc(S(=O)(=O)N3CCC4CCC(C(=O)NC(c5ccccc5)c5ccccc5)N4C(=O)C(NC(=O)C(C)NC)C3)c2)CCC2CCC(C(=O)NC(c3ccccc3)c3ccccc3)N2C1=O (stereo unspecified) + CCN1C(C(=O)NC23CCC(C(=O)O)(CC2)CC3)C(c2cccc(Cl)c2F)C2(C(=O)Nc3cc(Cl)ccc32)C12CCCCC2	N
Cn1ncnc1[C@H]1c2n[nH]c(=O)c3cc(F)cc(c23)N[C@@H]1c1ccc(F)cc1 + CCN1C(C(=O)NC23CCC(C(=O)O)(CC2)CC3)C(c2cccc(Cl)c2F)C2(C(=O)Nc3cc(Cl)ccc32)C12CCCCC2	Y
COc1c(OCCCN2CCOCC2)ccc2c3n(c(=NC(=O)c4cnc(N)nc4)nc12)CCN3 + CCN1C(C(=O)NC23CCC(C(=O)O)(CC2)CC3)C(c2cccc(Cl)c2F)C2(C(=O)Nc3cc(Cl)ccc32)C12CCCCC2	N
NC1CCC(NC2CC2c2ccccc2)CC1 (stereo unspecified) + CCN1C(C(=O)NC23CCC(C(=O)O)(CC2)CC3)C(c2cccc(Cl)c2F)C2(C(=O)Nc3cc(Cl)ccc32)C12CCCCC2	N

# ---- query compound ----
stdin: Please check: viability, T/C for O=C(c1ccc(F)c(F)c1Nc1ccc(I)cc1F)N1CC(O)([C@@H]2CCCCN2)C1 + CCN1C(C(=O)NC23CCC(C(=O)O)(CC2)CC3)C(c2cccc(Cl)c2F)C2(C(=O)Nc3cc(Cl)ccc32)C12CCCCC2 , strictly under 70% or not?
stdout: N

====

- System: 494315-158-R-J1-PDC complex spheroid growth, percent test/control
- Protocol: Anticancer human tumor 494315-158-R-J1-PDC cell line growth inhibition [Asc];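 further: compound exposure lasted seven days after spheroids formed for three days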
- Test Settings: second compound 0.316 µM; first compound 0.316 µM; active compounds read low
Catalogue of viability, T/C readings, one per entry.
Answer format: numeric, % implied, no suffix.

Compound	viability, T/C [%]
O=C(c1cc(Cc2n[nH]c(=O)c3ccccc23)ccc1F)N1CCN(C(=O)C2CC2)CC1 + Cc1c(S(C)(=O)=O)c(-c2cc(F)cc(N3CCN(c4ccc(NS(=O)(=O)c5ccc(NC(CCN6CCC(C(=O)OCCCP(=O)(O)O)CC6)CSc6ccccc6)c(S(=O)(=O)C(F)(F)F)c5)cc4)CC3)c2)c(-c2ccc(Cl)cc2)n1C(C)C	59.7

Continue with the compound presented below.
stdin: Answer with the recorded viability, T/C of C=C(F)C(=O)N1CCN(c2nc(OCC3CCCN3C)nc3c2CCN(c2cccc4cccc(Cl)c24)C3)CC1CC#N (configuration not stated) + Cc1c(S(C)(=O)=O)c(-c2cc(F)cc(N3CCN(c4ccc(NS(=O)(=O)c5ccc(NC(CCN6CCC(C(=O)OCCCP(=O)(O)O)CC6)CSc6ccccc6)c(S(=O)(=O)C(F)(F)F)c5)cc4)CC3)c2)c(-c2ccc(Cl)cc2)n1C(C)C only.
stdout: 75.1

Where do the numbers come from? From PubChem BioAssay AID1963420.
